experiment: Antagonist activity at CCR5 in human peripheral blood lymphocytes cells assessed as inhibition of HIV-1 Ba-L infection
readout name: IC50 (µM)
Report the value in µM with no unit label.

Item: "C=CCN(C(=O)OCc1ccc(C(F)(F)F)cc1)C1CCN(CCC2(c3cccc(F)c3)CCN(C(=O)c3cc(S(=O)(=O)NC(C)(C)C)c(F)cc3Cl)CC2)CC1" | IC50: 0.04

Form field IC50, entry "C=CCN(C(=O)Nc1ccc(S(C)(=O)=O)cc1)C1CCN(CCC2(c3cccc(F)c3)CCN(C(=O)c3cc(S(=O)(=O)NC(C)(C)C)c(F)cc3Cl)CC2)CC1" : 0.035

Sample "C=CCN(C(=O)NCc1ccc(C(=O)OC)cc1)C1CCN(CCC2(c3cccc(F)c3)CCN(C(=O)c3cc(S(=O)(=O)NC(C)(C)C)c(F)cc3Cl)CC2)CC1" ; IC50 observed: 0.146

Record "C=CCN(C(=O)Nc1ccc(C#N)cc1)C1CCN(CCC2(c3cccc(F)c3)CCN(C(=O)c3cc(S(=O)(=O)NC(C)(C)C)c(F)cc3Cl)CC2)CC1" , field IC50: 0.025

Reported IC50 for "C=CCN(C(=O)Cc1ccc(C(F)(F)F)cc1)C1CCN(CCC2(c3cccc(F)c3)CCN(C(=O)c3cc(S(=O)(=O)NC(C)(C)C)c(F)cc3Cl)CC2)CC1" was 0.053

The recorded IC50 for "C=CCN(C(=O)NCc1ccc(C#N)cc1)C1CCN(CCC2(c3cccc(F)c3)CCN(C(=O)c3cc(S(=O)(=O)NC(C)(C)C)c(F)cc3Cl)CC2)CC1" is 0.0037

====

test: Antagonist activity at CCR5 in HOS cells assessed as inhibition of HIV-1 Ba-L infection
readout name: pIC50
To interpret pIC50, take it as minus log10 of a concentration measured in moles per litre.

response.value for "C=CCN(C(=O)OCc1ccc(OC(F)(F)F)cc1)C1CCN(CCC2(c3cccc(F)c3)CCN(C(=O)c3cc(S(=O)(=O)NC(C)(C)C)c(F)cc3Cl)CC2)CC1" (field: pIC50) = 7.57

Input "C=CCN(C(=O)NCc1ccc(C#N)cc1)C1CCN(CCC2(c3cccc(F)c3)CCN(C(=O)c3cc(S(=O)(=O)NC(C)(C)C)c(F)cc3Cl)CC2)CC1" . Output pIC50: 8.41

Quick note, pIC50 for "C=CCN(C(=O)Cc1ccc(C(F)(F)F)cc1)C1CCN(CCC2(c3cccc(F)c3)CCN(C(=O)c3cc(S(=O)(=O)NC(C)(C)C)c(F)cc3Cl)CC2)CC1" landed at 8.48

// recorded pIC50 for "C=CCN(C(=O)Nc1ccc(C(F)(F)F)cc1)C1CCN(CCC2(c3cccc(F)c3)CCN(C(=O)c3cc(S(=O)(=O)NC(C)(C)C)c(F)cc3Cl)CC2)CC1" : 7.19

====

experiment: Antagonist activity at CCR5 in HOS cells assessed as inhibition of HIV-1 Ba-L infection
readout name: pIC50
pIC50 field: float, defined as -log10 of concentration (mol/L).

GET /value?item= "C=CCN(C(=O)OCc1ccc(C#N)cc1)C1CCN(CCC2(c3cccc(F)c3)CCN(C(=O)c3cc(S(=O)(=O)NC(C)(C)C)c(F)cc3Cl)CC2)CC1" &field=pIC50 returns 8.35

The value of pIC50 measured for the molecule "C=CCN(C(=O)Nc1ccc(OC(C)=O)cc1)C1CCN(CCC2(c3cccc(F)c3)CCN(C(=O)c3cc(S(=O)(=O)NC(C)(C)C)c(F)cc3Cl)CC2)CC1" turned out to be 7.22

The value of pIC50 measured for the molecule "CCCCN(C(=O)NCc1ccc(C#N)cc1)C1CCN(CCC2(c3cccc(F)c3)CCN(C(=O)c3cc(S(=O)(=O)NC(C)(C)C)c(F)cc3Cl)CC2)CC1" turned out to be 8.59

====

assay: Antagonist activity at CCR5 in HOS cells assessed as inhibition of HIV-1 Ba-L infection
For each of the compounds below, state its log10 IC50.
Scale: decimal log of IC50, IC50 in nM.

# compound "C=CCN(C(=O)CCc1ccc(C#N)cc1)C1CCN(CCC2(c3cccc(F)c3)CCN(C(=O)c3cc(S(=O)(=O)NC)c(F)cc3Cl)CC2)CC1" ; its log10 IC50 = 2.18

Reported log10 IC50 for "C=CCN(C(=O)OCc1ccc([N+](=O)[O-])cc1)C1CCN(CCC2(c3cccc(F)c3)CCN(C(=O)c3cc(S(=O)(=O)NC(C)(C)C)c(F)cc3Cl)CC2)CC1" was 0.93

Looking up "C=CCN(C(=O)Cc1ccc(S(C)(=O)=O)cc1)C1CCN(CCC2(c3cccc(F)c3)CCN(C(=O)c3cc(S(=O)(=O)NC(C)(C)C)c(F)cc3Cl)CC2)CC1" , I see its log10 IC50 listed as 1.81

Per the records, this compound ( "C=CCN(C(=O)NCc1ccc(C(F)(F)F)cc1)C1CCN(CCC2(c3cccc(F)c3)CCN(C(=O)c3cc(S(=O)(=O)NC(C)(C)C)c(F)cc3Cl)CC2)CC1" ) has log10 IC50 equal to 0.84

Sure, the documented log10 IC50 for "C=CCN(C(=O)OCc1ccc(F)cc1)C1CCN(CCC2(c3cccc(F)c3)CCN(C(=O)c3cc(S(=O)(=O)NC(C)(C)C)c(F)cc3Cl)CC2)CC1" is 1.34

For record "C=CCN(C(=O)Cc1ccc(OC(F)(F)F)cc1)C1CCN(CCC2(c3cccc(F)c3)CCN(C(=O)c3cc(S(=O)(=O)NC(C)(C)C)c(F)cc3Cl)CC2)CC1" the listed log10 IC50 is 1.26

====

experiment: Antagonist activity at CCR5 in HOS cells assessed as inhibition of HIV-1 Ba-L infection
I'd appreciate it if you could supply pIC50 values for the items below.
In simple prose, pIC50 is minus the logarithm base ten of a concentration in moles per litre.

The compound identified as "C=CCN(C(=O)OCc1ccc(C(F)(F)F)cc1)C1CCN(CCC2(c3cccc(F)c3)CCN(C(=O)c3cc(S(=O)(=O)NC(C)(C)C)c(F)cc3Cl)CC2)CC1" registered its pIC50 at 7.82

compound "C=CCN(C(=O)OCc1ccc(C(=O)OC)cc1)C1CCN(CCC2(c3cccc(F)c3)CCN(C(=O)c3cc(S(=O)(=O)NC(C)(C)C)c(F)cc3Cl)CC2)CC1" , pIC50 observed: 7.39

Entry "C=CCN(C(=O)Cc1ccc(F)cc1)C1CCN(CCC2(c3cccc(F)c3)CCN(C(=O)c3cc(S(=O)(=O)NC(C)(C)C)c(F)cc3Cl)CC2)CC1" — recorded pIC50 = 7.28

Just for reference, BindingDB's records for doi:10.1016/j.bmcl.2010.10.033 is where these values come from.
